Reference source for all entries: ChEMBL document CHEMBL1201862

biological target: Glucose-6-phosphate 1-dehydrogenase (Homo sapiens, UniProt P11413); assay: human G6PD enzyme inhibitors, dose response, selectivity assay for P. falciparum G6PD inhibitor project, biochemical, fluorescence (AID 504792); assay type: functional
Sequence (P11413 whole entry): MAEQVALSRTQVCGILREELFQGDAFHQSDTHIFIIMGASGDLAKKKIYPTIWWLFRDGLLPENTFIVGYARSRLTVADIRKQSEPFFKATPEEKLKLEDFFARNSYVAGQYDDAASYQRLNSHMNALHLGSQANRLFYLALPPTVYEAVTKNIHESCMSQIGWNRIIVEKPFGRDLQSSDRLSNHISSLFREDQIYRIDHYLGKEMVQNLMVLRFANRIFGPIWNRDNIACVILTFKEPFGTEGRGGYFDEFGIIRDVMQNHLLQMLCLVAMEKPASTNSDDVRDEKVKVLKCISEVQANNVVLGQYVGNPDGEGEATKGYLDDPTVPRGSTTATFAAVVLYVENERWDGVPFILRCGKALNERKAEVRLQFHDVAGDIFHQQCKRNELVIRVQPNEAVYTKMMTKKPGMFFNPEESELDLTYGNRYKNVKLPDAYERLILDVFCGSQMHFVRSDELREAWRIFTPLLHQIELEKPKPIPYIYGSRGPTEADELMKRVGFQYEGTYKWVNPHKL
The source made the active and inactive calls.
# Lookup of reported IC50 keyed by entry

# molecule, subject.of.test, IC50
rows = [
    ("COC(=O)C1=C(C(=O)OC)SC2(S1)C(C(=O)OC)=C(C(=O)OC)Sc1c2ssc1=O", "Glucose-6-phosphate 1-dehydrogenase (Homo sapiens, UniProt P11413)", "> 80 µM (inactive)"),
    ("Cc1ccccc1-n1c(-c2ccc3ccccc3n2)n[nH]c1=S", "Glucose-6-phosphate 1-dehydrogenase (Homo sapiens, UniProt P11413)", "> 80 µM (inactive)"),
    ("O=C(Nc1ccc(N2CCN(C(=O)c3ccco3)CC2)c(Cl)c1)c1cc2ccccc2o1", "Glucose-6-phosphate 1-dehydrogenase (Homo sapiens, UniProt P11413)", "> 80 µM (inactive)"),
    ("CC(N=C1C=C(O)c2cccnc2C1=O)C(O)c1ccccc1 (stereo not given)", "Glucose-6-phosphate 1-dehydrogenase (Homo sapiens, UniProt P11413)", "33.2 µM (inactive)"),
]

Now consider a different molecule.
Summary for this molecule, COc1cc(N2C(=O)C=CC2=O)ccc1N1C(=O)C=CC1=O : IC50 is 57.4 µM (inactive)

* * *

Reported EC50 values for the following compounds.
assay: Luminescence Cell-Based Dose Response HTS to Identify Inhibitors of 5'UTR Stem-Loop Driven Prion Protein mRNA Translation in H4 Neuroglioblastoma Cells. [Related pubchem assays: 1827 (Project Summary), 1813 (Primary HTS)]; format: functional
Active and inactive are the calls of the source.

These recorded examples may help you get a feel for the data.
# compound.smiles, EC50
records = [
    ("Nc1nc(NCCc2ccccc2)nc(NCCO)c1[N+](=O)[O-]", "> 120 µM (not active)"),
    ("COc1cc2nc(N3CCN(c4cc(C)ccc4C)CC3)nc(N)c2cc1OC", "> 120 µM (not active)"),
    ("Cc1ccc(C)c(N(CC(=O)Nc2ccccc2C(=O)NCc2ccco2)S(=O)(=O)c2ccccc2)c1", "> 120 µM (not active)"),
]

Entry CCc1nc(SCC(=O)Nc2cccc(C(F)(F)F)c2)c2c(=O)n(C)c(=O)n(C)c2n1 , EC50 reported as 16.4 µM (active)

Notebook: O=C(NCc1ccco1)c1ccc(Cn2c(=O)c3ccccc3n(Cc3cccc(Cl)c3)c2=O)cc1 , EC50 read as > 120 µM (not active)

Lab book: EC50 of Cc1ccc(S(=O)(=O)Nc2ccccc2-c2ccccc2)cc1 noted as > 120 µM (not active)

* * *

assay: CellTiter-Glo luminescent dose response of DLD-1 viability loss (AID 1117352); assay type: functional
Activity calls are given as the source filed them.
Field 'call' accepts active, inactive

Take a look at these entries with their results.
# molecule, assigned.class
data = [
    ("COC(=O)Nc1nc2cc([S+]([O-])c3ccccc3)ccc2[nH]1 (centres undefined) [OXFENDAZOLE]", "inactive"),
    ("C=CCN1CC[C@]23CCCC[C@H]2[C@H]1Cc1ccc(O)cc13 [LEVALLORPHAN]", "inactive"),
    ("O=C(Nc1ccc(Br)cc1)c1cc(Br)cc(Br)c1O [TRIBROMSALAN]", "active"),
]

Pending molecule:
Request: Per the assay record, what outcome was assigned to CCOP(=S)(OCC)SCSc1ccc(Cl)cc1 [CARBOFENOTION] ?
Response: inactive

* * *

experiment: microbe, parasite or virus in culture; assay type: functional; conditions: Mycobacterium tuberculosis
Activity calls are given as the source filed them.
quantity.name: CC50

Here are 4 compounds together with their reported answers.
# compound, reading
data = [
    ("CC(C)(C)C(=O)NC(=S)NNC(=O)c1sc2ccccc2c1Cl", "6.74 µM (active)"),
    ("CCOc1ccc(S(=O)(=O)N2CCN(C(=O)c3cc4c(s3)CCCC4)CC2)cc1", "> 40 µM (active)"),
    ("Cc1ccc(CN2CCC(c3cc(-c4ccc(Cl)cc4)[nH]n3)CC2)cc1", "> 40 µM (active)"),
    ("CCCCCCOC(=O)C(C#N)c1nc2ccccc2nc1N1CCN(CC)CC1 (stereo not given)", "19.7 µM (active)"),
]

The reported CC50 of the compound CCOC(=O)N1CCN(c2nc(N(c3ccccc3)c3ccccc3)nc(-n3ccnc3)n2)CC1 was > 40 µM (active)

* * *

Each entry below carries its recorded EC50.
Target: Heat shock factor protein 1 (Mus musculus)
Sequence (P38532 whole entry): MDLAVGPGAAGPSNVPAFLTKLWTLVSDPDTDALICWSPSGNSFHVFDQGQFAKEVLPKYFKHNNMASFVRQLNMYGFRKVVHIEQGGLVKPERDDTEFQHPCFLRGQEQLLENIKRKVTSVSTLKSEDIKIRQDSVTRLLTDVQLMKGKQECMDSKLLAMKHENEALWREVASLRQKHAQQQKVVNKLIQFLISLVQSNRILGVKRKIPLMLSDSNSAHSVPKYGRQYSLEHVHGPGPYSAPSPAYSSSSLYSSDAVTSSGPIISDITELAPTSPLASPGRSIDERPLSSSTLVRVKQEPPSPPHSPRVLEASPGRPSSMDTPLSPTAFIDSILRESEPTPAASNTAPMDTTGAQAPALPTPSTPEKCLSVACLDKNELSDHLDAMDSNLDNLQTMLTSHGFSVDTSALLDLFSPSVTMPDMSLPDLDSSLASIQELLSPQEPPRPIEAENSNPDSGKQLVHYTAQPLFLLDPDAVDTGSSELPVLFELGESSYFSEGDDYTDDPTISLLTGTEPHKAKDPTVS
Experiment: HSF1 potentiators in luciferase reporter cells, confirmation, cell-based, NIH3T3, luminescence, dose retest (AID 435004);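 further: stress induced by proteasome inhibitor MG132 added 30 min after compound; luciferase reporter driven by HSF1 response element in NIH3T3 cells; actives raise luminescence as potentiators of the MG132 stress response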
Format: functional
Active and inactive are the calls of the source.

Answered examples (4):
# compound, EC50
data = [
    ("CCOC(=O)C1=C(c2ccc(OC)cc2)C(=O)c2ccccc2C1=O", "52.2 µM (active)"),
    ("O=C(NCc1ccco1)C1CC(O)CN1C(=O)Nc1ccccc1 (stereo not given)", "> 260 µM (inactive)"),
    ("Cc1cc(C(=O)N/N=C/c2ccc([N+](=O)[O-])s2)c2ccccc2n1", "13 µM (active)"),
    ("CCN(CC)S(=O)(=O)c1ccc2c(c1)nc(SCC(=O)NC1CC1)n2-c1ccccc1OC", "> 260 µM (inactive)"),
]

Lab note: next compound to report on.
Record summary for COCCCNC(=O)c1ccc2c3c(onc13)-c1ccccc1C2=O : reported EC50 = 3.48 µM (active)

* * *

biological target: UniProt:O14727; assay type: functional
Sequence (O14727 whole entry): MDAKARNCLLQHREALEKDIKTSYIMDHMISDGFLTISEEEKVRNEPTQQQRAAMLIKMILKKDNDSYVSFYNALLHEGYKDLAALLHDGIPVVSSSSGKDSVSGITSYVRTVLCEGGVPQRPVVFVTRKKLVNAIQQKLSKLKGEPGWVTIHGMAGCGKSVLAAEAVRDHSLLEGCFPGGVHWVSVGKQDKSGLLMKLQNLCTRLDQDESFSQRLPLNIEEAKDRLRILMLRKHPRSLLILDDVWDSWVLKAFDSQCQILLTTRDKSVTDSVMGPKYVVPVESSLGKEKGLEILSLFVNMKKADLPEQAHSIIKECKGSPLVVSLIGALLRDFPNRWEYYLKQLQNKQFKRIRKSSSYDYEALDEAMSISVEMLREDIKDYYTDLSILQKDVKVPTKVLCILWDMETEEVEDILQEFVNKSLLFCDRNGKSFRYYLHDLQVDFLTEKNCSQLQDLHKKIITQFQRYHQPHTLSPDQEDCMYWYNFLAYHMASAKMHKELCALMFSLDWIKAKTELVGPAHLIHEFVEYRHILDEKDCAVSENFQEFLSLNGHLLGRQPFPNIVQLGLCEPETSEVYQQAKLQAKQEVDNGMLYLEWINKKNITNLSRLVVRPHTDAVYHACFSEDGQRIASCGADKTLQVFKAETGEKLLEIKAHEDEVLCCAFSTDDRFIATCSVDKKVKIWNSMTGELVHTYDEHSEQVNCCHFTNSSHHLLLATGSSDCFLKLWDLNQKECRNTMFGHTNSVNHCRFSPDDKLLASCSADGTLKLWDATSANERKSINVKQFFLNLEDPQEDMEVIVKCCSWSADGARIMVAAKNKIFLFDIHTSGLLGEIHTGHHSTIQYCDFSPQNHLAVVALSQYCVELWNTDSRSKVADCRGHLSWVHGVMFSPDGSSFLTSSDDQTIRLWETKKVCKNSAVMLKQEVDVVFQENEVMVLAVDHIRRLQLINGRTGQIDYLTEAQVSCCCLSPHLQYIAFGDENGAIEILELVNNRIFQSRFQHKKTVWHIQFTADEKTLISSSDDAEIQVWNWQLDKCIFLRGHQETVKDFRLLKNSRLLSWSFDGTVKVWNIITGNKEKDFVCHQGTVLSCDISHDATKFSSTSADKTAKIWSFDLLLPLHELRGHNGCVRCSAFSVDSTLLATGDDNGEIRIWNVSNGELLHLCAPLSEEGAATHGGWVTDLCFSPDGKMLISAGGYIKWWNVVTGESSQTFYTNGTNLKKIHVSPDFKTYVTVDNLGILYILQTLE
Activity calls are given as the source filed them.
Select the matching outcome among Yes = active, No = inactive

Use these answered entries as a reference point.
# compound, assigned.class
measured = [
    ("O=C1C(=O)c2ccccc2-c2ccccc21", "Yes"),
    ("O=C1c2cc(F)ccc2-n2c1nc1ccccc1c2=O", "Yes"),
    ("CC(=O)c1cccc(-c2ccc3c(=O)[nH]c(Nc4ccccc4)cc3c2)c1", "Yes"),
    ("COCCCNC(=O)c1ccc2c3c(onc13)-c1ccccc1C2=O", "Yes"),
    ("Cc1ccc(NC(=O)CN(C)C(=O)c2ccc3[nH]c4c(c3c2)CC(C)CC4)cc1 (configuration not stated)", "No"),
]

Request: What is the recorded call for this compound in the test? CCc1ccc(OCC(=O)N/N=C2\CC(=O)c3ccccc32)cc1
Response: Yes

Request: Hello, I am checking results. What call was entered for CCCCn1c(NC(=O)c2ccccc2Cl)c(C#N)c2nc3ccccc3nc21 ?
Response: Yes

* * *

target: Steroidogenic factor 1 (Homo sapiens); test: Counterscreen for inverse agonists of the liver receptor homolog-1 (LRH-1; NR5A2): Luminescence-based cell-based high throughput dose response assay to identify inverse agonists of the Steroidogenic Factor 1 Nuclear Receptor (SF1; NR5A1).; format: functional
Sequence (Q13285 whole entry): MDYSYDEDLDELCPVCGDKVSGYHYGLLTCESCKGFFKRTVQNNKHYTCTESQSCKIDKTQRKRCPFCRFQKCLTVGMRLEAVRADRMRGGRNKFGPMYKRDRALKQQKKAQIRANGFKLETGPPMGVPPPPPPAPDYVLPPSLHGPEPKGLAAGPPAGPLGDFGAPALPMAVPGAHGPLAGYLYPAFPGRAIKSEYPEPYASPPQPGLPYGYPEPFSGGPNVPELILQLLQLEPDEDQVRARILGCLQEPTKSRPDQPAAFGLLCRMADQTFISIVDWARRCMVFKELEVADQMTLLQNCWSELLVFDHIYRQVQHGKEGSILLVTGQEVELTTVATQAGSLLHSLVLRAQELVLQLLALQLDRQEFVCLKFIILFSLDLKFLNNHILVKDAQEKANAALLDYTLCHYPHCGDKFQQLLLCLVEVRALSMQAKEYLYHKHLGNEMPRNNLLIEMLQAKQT
Activity calls are given as the source filed them.
Could you please pick one outcome from this set? active, inactive

Some solved cases for reference:
# compound, assigned.class
rows = [
    ("CCCc1cc(=O)oc2cc(C)cc(OCC(=O)Nc3ccccn3)c12", "active"),
    ("Nc1ccc(C(=O)NN2C(=O)[C@H](Cl)C2c2ccc(Cl)cc2)cc1 (stereo not given in full)", "inactive"),
]

Request: Call for entry CCc1cc(=O)oc2c(C)c(OCC(=O)NC3CC(C)(C)NC(C)(C)C3)ccc12 :
Response: active

Request: Name the outcome recorded for Cc1ccccc1Nc1nc(-c2cccnc2)nc2ccccc12 in the assay.
Response: inactive

Request: State the result this test recorded for CCc1cc(=O)oc2cc(C)cc(OCC(=O)NC3CC3)c12 .
Response: active

* * *

system: BJ; test: cytotoxicity toward Ras-transformed BJeLR fibroblasts, dose response, cell-based, alamar blue fluorescence, cherrypicked samples (AID 2631); format: functional; details: Homo sapiens;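 further: confirmatory dose-response assay in RAS-dependent BJ fibroblasts engineered with TERT, LT and ST, with cytotoxicity read by fluorescence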
Calls of active or inactive are those of the source.
Some compounds, each annotated with its measured EC50.

Some entries whose results are on file:
# compound.smiles, EC50
rows = [
    ("O=C(CCCCCCCCCCC(=O)NCc1cccnc1)NCc1cccnc1", "> 133000 nM (inactive)"),
    ("COCCCNC(=O)c1ccc2c3c(onc13)-c1ccccc1C2=O", "4110 nM (active)"),
    ("CNC[C@H](CC1CCCCC1)NC[C@H](Cc1ccccc1)NCCC12CC3CC(CC(C3)C1)C2", "509 nM (inconclusive)"),
]

// EC50 lookup, compound = CCOC(=O)C1=C(c2ccc(OC)cc2)C(=O)c2ccccc2C1=O , result: 605 nM (active)
